assay: Stability of linkers L1-L4 conjugated to FGF21 (LC-MS); type: physicochemical; conditions: linker conjugated to FGF21ΔH-A129C, +4° C.; 24 hrs
PARAMETER_MEASURED: 0 linker (unconjugated protein) (%)
Provide the reading as a plain figure in %.

Example results:
| COMPOUND | 0 linker (unconjugated protein), % |
| --- | --- |
| CC1=CC(=O)N(CC2CCC(C(=O)NCCOCCOCCC(=O)Nc3ccc(CCC(=O)N4CCC4=O)cc3)CC2)C1=O (stereo not shown) [Compound L4] | 20 |
| O=C(CCN1C(=O)C=CC1=O)NCCOCCOCCC(=O)Nc1ccc(CCC(=O)N2CCC2=O)cc1 [Compound L1] | 14 |
| CC1=CC(=O)N(CCOCCOCCC(=O)Nc2ccc(CCC(=O)N3CCC3=O)cc2)C1=O [Compound L3] | 18 |

What measured 0 linker (unconjugated protein) goes with CC1=CC(=O)N(CCC(=O)NCCOCCOCCC(=O)Nc2ccc(CCC(=O)N3CCC3=O)cc2)C1=O [Compound L2] ?
23

Taken from patent US9163227B2.
